System: RXF 393
assay procedure: Growth inhibition of human RXF393 cells assessed as cell growth at 10 uM incubated for 48 hrs by sulforhodamine B assay relative to control
Type: functional
condition: RXF 393, 48 h, read-out: Activity
measurement kind: growth at 10 µM (%)
Value expressed in %; do not type the unit.

Example entries begin here.
>  <structure smiles>
COc1cc(Cl)cc(-c2nn(-c3cccc(NC(=O)Nc4ccc(Cl)c(Cl)c4)c3)cc2-c2ccncc2)c1

>  <result>
4.46

$$$$
>  <structure smiles>
COc1cc(Cl)cc(-c2nn(-c3cccc(NC(=O)Nc4cccc(C(F)(F)F)c4)c3)cc2-c2ccncc2)c1

>  <result>
11.8

$$$$
>  <structure smiles>
COc1cc(Cl)cc(-c2nn(-c3cccc(NC(=O)c4ccc(Cl)c(Cl)c4)c3)cc2-c2ccncc2)c1

>  <result>
59.2

$$$$

We next turn to a different compound, shown below.
Value of growth at 10 µM reported for the compound COc1cc(Cl)cc(-c2nn(-c3cccc(NC(=O)c4cccc(C(F)(F)F)c4)c3)cc2-c2ccncc2)c1 is 40.5

====

Test system: RPMI-8226
assay procedure: Growth inhibition of human RPMI8226 cells assessed as cell growth at 0.01 uM incubated for 48 hrs by sulforhodamine B assay relative to control
Type: functional
condition: RPMI-8226, 48 h, read-out: Activity
Property: growth at 0.01 µM; scope: individual compounds
Value expressed in %; do not type the unit.

>  <structure smiles>
O=C(Nc1cccc(-n2cc(-c3ccncc3)c(-c3cc(O)cc(Cl)c3)n2)c1)Nc1ccc(Cl)c(C(F)(F)F)c1

>  <measure unit>
%

>  <growth at 0.01 µM>
101

$$$$
>  <structure smiles>
O=C(Nc1cccc(-n2cc(-c3ccncc3)c(-c3cc(O)cc(Cl)c3)n2)c1)c1ccc(N2CCOCC2)c(C(F)(F)F)c1

>  <measure unit>
%

>  <growth at 0.01 µM>
104

$$$$
>  <structure smiles>
O=C(Nc1cccc(-n2cc(-c3ccncc3)c(-c3cc(O)cc(Cl)c3)n2)c1)Nc1ccc(Cl)c(Cl)c1

>  <measure unit>
%

>  <growth at 0.01 µM>
104

$$$$

We next turn to a different compound, shown below.
Value of growth at 0.01 µM reported for the compound COc1cc(Cl)cc(-c2nn(-c3cccc(NC(=O)c4cccc(C(F)(F)F)c4)c3)cc2-c2ccncc2)c1 is 101

====

System: SK-MEL-28
assay procedure: Growth inhibition of human SK-MEL-28 cells incubated for 48 hrs by sulforhodamine B assay
Format: functional, cell-based
condition: SK-MEL-28, 48 h, read-out: pLC50 (the source's name) (converted)
measurement kind: CC50

>  <structure smiles>
COc1cc(Cl)cc(-c2nn(-c3cccc(NC(=O)c4ccc(N5CCOCC5)c(C(F)(F)F)c4)c3)cc2-c2ccncc2)c1

>  <assay system>
SK-MEL-28

>  <result>
> 100 µM

$$$$

Hey, SK-MEL-28 data for O=C(Nc1cccc(-n2cc(-c3ccncc3)c(-c3cc(O)cc(Cl)c3)n2)c1)c1cc(C(F)(F)F)cc(C(F)(F)F)c1 : CC50 came out at > 100 µM

Hey, SK-MEL-28 data for O=C(Nc1cccc(-n2cc(-c3ccncc3)c(-c3cc(O)cc(Cl)c3)n2)c1)Nc1ccc(Cl)c(Cl)c1 : CC50 came out at 41.7 µM

Hey, SK-MEL-28 data for O=C(Nc1cccc(-n2cc(-c3ccncc3)c(-c3cc(O)cc(Cl)c3)n2)c1)c1ccc(N2CCOCC2)c(C(F)(F)F)c1 : CC50 came out at > 100 µM

====

Tested on: SK-MEL-2
assay procedure: Growth inhibition of human SK-MEL-2 cells assessed as cell growth at 10 uM incubated for 48 hrs by sulforhodamine B assay relative to control
Type: functional
condition: SK-MEL-2, 48 h, read-out: Activity
measurement kind: growth at 10 µM (%)
Value expressed in %; do not type the unit.

>  <structure smiles>
COc1cc(Cl)cc(-c2nn(-c3cccc(NC(=O)Nc4cc(C(F)(F)F)cc(C(F)(F)F)c4)c3)cc2-c2ccncc2)c1

>  <measurement kind>
growth at 10 µM

>  <result>
-38.1

$$$$
>  <structure smiles>
COc1cc(Cl)cc(-c2nn(-c3cccc(NC(=O)Nc4ccc(Cl)c(C(F)(F)F)c4)c3)cc2-c2ccncc2)c1

>  <measurement kind>
growth at 10 µM

>  <result>
-34

$$$$
>  <structure smiles>
O=C(Nc1cccc(-n2cc(-c3ccncc3)c(-c3cc(O)cc(Cl)c3)n2)c1)Nc1ccc(Cl)c(C(F)(F)F)c1

>  <measurement kind>
growth at 10 µM

>  <result>
-38

$$$$

We next turn to a different molecule, shown below.
Value of growth at 10 µM reported for the molecule O=C(Nc1cccc(-n2cc(-c3ccncc3)c(-c3cc(O)cc(Cl)c3)n2)c1)c1ccc(N2CCOCC2)c(C(F)(F)F)c1 is 22.9

====

System: SN12C
assay procedure: Growth inhibition of human SN12C cells assessed as cell growth at 100 uM incubated for 48 hrs by sulforhodamine B assay relative to control
Assay type: functional
condition: read-out: Activity
measurement kind: growth at 100 µM (%)
Value expressed in %; do not type the unit.

Example entries begin here.
>  <structure smiles>
COc1cc(Cl)cc(-c2nn(-c3cccc(NC(=O)Nc4ccc(Cl)c(Cl)c4)c3)cc2-c2ccncc2)c1

>  <measure unit>
%

>  <growth at 100 µM>
5

$$$$
>  <structure smiles>
O=C(Nc1cccc(-n2cc(-c3ccncc3)c(-c3cc(O)cc(Cl)c3)n2)c1)c1ccc(N2CCOCC2)c(C(F)(F)F)c1

>  <measure unit>
%

>  <growth at 100 µM>
38

$$$$

Value of growth at 100 µM reported for the molecule O=C(Nc1cccc(-n2cc(-c3ccncc3)c(-c3cc(O)cc(Cl)c3)n2)c1)c1cc(C(F)(F)F)cc(C(F)(F)F)c1 is 17

Value of growth at 100 µM reported for the molecule COc1cc(Cl)cc(-c2nn(-c3cccc(NC(=O)Nc4ccc(Cl)c(C(F)(F)F)c4)c3)cc2-c2ccncc2)c1 is -43

====

System: NCI-H226
assay procedure: Growth inhibition of human NCI-H226 cells incubated for 48 hrs by sulforhodamine B assay
Assay type: functional, cell-based
condition: NCI-H226, 48 h, read-out: TGI
measurement kind: TGI (µM)
Value expressed in µM; do not type the unit.

>  <structure smiles>
COc1cc(Cl)cc(-c2nn(-c3cccc(NC(=O)Nc4cc(C(F)(F)F)cc(C(F)(F)F)c4)c3)cc2-c2ccncc2)c1

>  <assay system>
NCI-H226

>  <TGI / µM>
5.17

$$$$

Hey, NCI-H226 data for O=C(Nc1cccc(-n2cc(-c3ccncc3)c(-c3cc(O)cc(Cl)c3)n2)c1)Nc1ccc(Cl)c(C(F)(F)F)c1 : TGI came out at 89.6

Hey, NCI-H226 data for COc1cc(Cl)cc(-c2nn(-c3cccc(NC(=O)Nc4cccc(C(F)(F)F)c4)c3)cc2-c2ccncc2)c1 : TGI came out at 11.5

====

Property: growth at 1 µM; scope: individual compounds
Test system: MDA-MB-468
assay procedure: Growth inhibition of human MDA-MB-468 cells assessed as cell growth at 1 uM incubated for 48 hrs by sulforhodamine B assay relative to control
Format: functional
condition: MDA-MB-468, 48 h, read-out: Activity
Value expressed in %; do not type the unit.

Example entries begin here.
>  <structure smiles>
O=C(Nc1cccc(-n2cc(-c3ccncc3)c(-c3cc(O)cc(Cl)c3)n2)c1)c1cc(C(F)(F)F)cc(C(F)(F)F)c1

>  <measure unit>
%

>  <growth at 1 µM>
52

$$$$
>  <structure smiles>
O=C(Nc1cccc(-n2cc(-c3ccncc3)c(-c3cc(O)cc(Cl)c3)n2)c1)c1ccc(N2CCOCC2)c(C(F)(F)F)c1

>  <measure unit>
%

>  <growth at 1 µM>
75

$$$$
>  <structure smiles>
COc1cc(Cl)cc(-c2nn(-c3cccc(NC(=O)c4ccc(N5CCOCC5)c(C(F)(F)F)c4)c3)cc2-c2ccncc2)c1

>  <measure unit>
%

>  <growth at 1 µM>
56

$$$$

Value of growth at 1 µM reported for the compound COc1cc(Cl)cc(-c2nn(-c3cccc(NC(=O)Nc4cccc(C(F)(F)F)c4)c3)cc2-c2ccncc2)c1 is 51

====

Property: growth at 10 µM; scope: individual compounds
System: NCI-H226
assay procedure: Growth inhibition of human NCI-H226 cells assessed as cell growth at 10 uM incubated for 48 hrs by sulforhodamine B assay relative to control
Assay type: functional
condition: NCI-H226, 48 h, read-out: Activity
Write the figure, then the unit, nothing else.

>  <structure smiles>
COc1cc(Cl)cc(-c2nn(-c3cccc(NC(=O)c4ccc(N5CCOCC5)c(C(F)(F)F)c4)c3)cc2-c2ccncc2)c1

>  <assay system>
NCI-H226

>  <growth at 10 µM>
64.2%

$$$$
>  <structure smiles>
COc1cc(Cl)cc(-c2nn(-c3cccc(NC(=O)c4cccc(C(F)(F)F)c4)c3)cc2-c2ccncc2)c1

>  <assay system>
NCI-H226

>  <growth at 10 µM>
69%

$$$$
>  <structure smiles>
COc1cc(Cl)cc(-c2nn(-c3cccc(NC(=O)Nc4ccc(Cl)c(Cl)c4)c3)cc2-c2ccncc2)c1

>  <assay system>
NCI-H226

>  <growth at 10 µM>
7.27%

$$$$
>  <structure smiles>
O=C(Nc1cccc(-n2cc(-c3ccncc3)c(-c3cc(O)cc(Cl)c3)n2)c1)Nc1ccc(Cl)c(Cl)c1

>  <assay system>
NCI-H226

>  <growth at 10 µM>
14.5%

$$$$
>  <structure smiles>
O=C(Nc1cccc(-n2cc(-c3ccncc3)c(-c3cc(O)cc(Cl)c3)n2)c1)c1cc(C(F)(F)F)cc(C(F)(F)F)c1

>  <assay system>
NCI-H226

>  <growth at 10 µM>
96%

$$$$

We next turn to a different compound, shown below.
Value of growth at 10 µM reported for the compound COc1cc(Cl)cc(-c2nn(-c3cccc(NC(=O)Nc4cc(C(F)(F)F)cc(C(F)(F)F)c4)c3)cc2-c2ccncc2)c1 is -5.97%
